K0.5-mut/K0.5-wt values by entry
molecular target: plasma purified human antithrombin III (AT-III) in complex with full-length unfractionated heparin (UFH)
Field: numeric (fold). Do not append units.

Please look at this protein and report its K0.5-mut/K0.5-wt: FIXa Y259F/K265T/Y345T (protein) chain 1: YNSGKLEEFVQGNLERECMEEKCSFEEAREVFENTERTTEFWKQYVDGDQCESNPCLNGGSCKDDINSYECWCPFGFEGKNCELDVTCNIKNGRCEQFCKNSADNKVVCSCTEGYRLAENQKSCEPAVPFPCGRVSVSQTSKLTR chain 2: VVGGEDAKPGQFPWQVVLNGKVDAFCGGSIVNEKWIVTAAHCVETGVKITVVAGEHNIEETEHTEQKRNVIRIIPHHNFNAAINTYNHDIALLELDEPLVLNSYVTPICIADKEYTNIFLKFGSGYVSGWGRVFHKGRSALVLQYLRVPLVDRATCLRSTKFTITNNMFCAGFHEGGRDSCQGDSGGPHVTEVEGTSFLTGIISWGEECAMKGKYGIYTKVSRYVNWIKEKTKLT 0.3

The record that follows has no K0.5-mut/K0.5-wt shown yet.
Please look at this protein and report its K0.5-mut/K0.5-wt: FIXa D104N/K106S/Y155F/K228N/K247N/N249S (protein) chain 1: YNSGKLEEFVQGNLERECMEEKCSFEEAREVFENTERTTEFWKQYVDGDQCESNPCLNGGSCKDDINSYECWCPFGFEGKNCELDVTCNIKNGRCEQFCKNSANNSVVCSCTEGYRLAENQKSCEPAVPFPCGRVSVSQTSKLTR chain 2: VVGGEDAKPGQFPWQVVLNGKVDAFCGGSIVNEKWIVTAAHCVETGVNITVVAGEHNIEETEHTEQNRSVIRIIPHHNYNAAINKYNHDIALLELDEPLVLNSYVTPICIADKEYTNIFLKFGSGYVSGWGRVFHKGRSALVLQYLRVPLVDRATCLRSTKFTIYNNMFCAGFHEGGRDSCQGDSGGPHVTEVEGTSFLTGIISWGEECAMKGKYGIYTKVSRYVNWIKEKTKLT 1.6
